The measurements presented in this section are drawn from patent US20110130397A1.

Each entry below lists one item and its recorded melting point value.

Reference set, count: 3
molecule	experimental-endpoint	test-value
Cc1ccc(C(=O)C2=C(O)C(=O)N(c3nc4ccc(F)cc4s3)C2c2ccc3ccccc3c2)o1 (stereo not drawn) [Compound 600]	melting point	254 to 256 °C
O=C(C1=C(O)C(=O)N(c2nc3c(Cl)cccc3s2)C1c1ccc(F)cc1)C1CC2C=CC1C2 (stereo not drawn) [Compound 570]	melting point	216 to 218 °C
Cc1ccc(C(=O)C2=C(O)C(=O)N(c3nc4c(Cl)cccc4s3)C2c2ccccc2C)o1 (stereo not drawn) [Compound 628]	melting point	244 to 245 °C

Q) So what's the measured melting point for this one? Cc1ccc(C(=O)C2=C(O)C(=O)N(c3nc4c(Cl)cccc4s3)C2c2ccc3c(c2)OCCO3)o1 (stereo not drawn) [Compound 598]
A) 251 to 252 °C

Q) Please give the result for Cc1ccc(C(=O)C2=C(O)C(=O)N(c3nc4ccc(Cl)cc4s3)C2c2cccc([N+](=O)[O-])c2)o1 (stereo not drawn) [Compound 139] too.
A) > 300 °C

Q) For CCOC(=O)CCC(=O)C1=C(O)C(=O)N(c2nc3c(Cl)cccc3s2)C1c1ccc(F)cc1 (stereo not drawn) [Compound 500] then?
A) 178 to 179 °C

Q) Also Cc1ccc(C(=O)C2=C(O)C(=O)N(c3nc4ccc([N+](=O)[O-])cc4s3)C2c2ccccc2F)o1 (stereo not drawn) [Compound 152] ?
A) 255 to 257 °C

Q) Item: COc1cc(C2C(C(=O)c3ccc(C)o3)=C(O)C(=O)N2c2nc3ccc(Cl)cc3s2)cc(OC)c1OC (stereo not drawn) [Compound 605]
A) 229 to 230 °C

* * *

Some compounds, each annotated with its measured melting point.

compound	melting point
Cc1coc(N2C(=O)C(O)=C(C(=O)c3cc4ccccc4o3)C2c2ccc(OCc3ccccc3)cc2)n1 (stereo not shown)	169 to 171 °C
O=C(C1=C(O)C(=O)N(c2nc3ccc(F)cc3s2)C1c1ccc(F)cc1)c1nccs1 (stereo not shown)	320 to 321 °C
Cc1ccc(C(=O)C2=C(O)C(=O)N(Cc3ccco3)C2c2ccc(F)cc2)o1 (stereo not shown)	213 to 214 °C

Now examine the next entry.
Q) Which measured melting point value corresponds to Cc1ccc(C(=O)C2=C(O)C(=O)N(Cc3nc4ccccc4[nH]3)C2c2ccc(F)cc2)o1 (stereo not shown) ?
A) 96 to 100 °C

* * *

Quick reference: melting point of the listed items.

molecule	melting point
O=C(COc1ccccc1)C1=C(O)C(=O)N(c2nc3ccc(F)cc3s2)C1c1ccccc1F (stereo not shown)	197 to 198 °C
Cc1ccc(C(=O)C2=C(O)C(=O)N(c3nc4ccc(F)cc4s3)C2c2ccc(-c3ccccc3)cc2)o1 (stereo not shown)	228 to 231 °C
CC(=O)NC(CC(C)C)C(=O)C1=C(O)C(=O)N(c2nc3ccc(Cl)cc3s2)C1c1ccc(F)cc1 (stereo not shown)	148 to 152 °C
Cc1ccc(C(=O)C2=C(O)C(=O)N(c3nc4c(Cl)cccc4s3)C2c2ccc(F)c(F)c2)o1 (stereo not shown)	269 to 270 °C
Cc1ccc(C(=O)C2=C(O)C(=O)N(CCc3c[nH]c4ccccc34)C2c2ccc(F)cc2)o1 (stereo not shown)	157 to 158 °C

Q) Looking for the measured melting point of CCOC(=O)CCC(=O)C1=C(O)C(=O)N(c2nc3ccc(F)cc3s2)C1c1ccccc1F (stereo not shown) , can you help?
A) 184 to 185 °C

Q) Now consider O=C(O)CCC(=O)C1=C(O)C(=O)N(c2nc3ccc(Cl)cc3s2)C1c1ccc(F)cc1 (stereo not shown) .
A) 262 to 263 °C

Q) Here is the next molecule: CCOC1=C(C(=O)c2ccc(C)o2)C(c2ccc(O)cc2)N(c2nc3ccccc3n2C)C1=O (stereo not shown)
A) 254 to 255 °C

* * *

CC50 listing for selected molecules.
assay-protocol: Cytotoxicity (CellTiter 96 Aqueous Non-Radioactive Cell Proliferation Assay)
Type: cell-based
condition-info: human, Huh7 cells

Consider the following illustrative entries.
molecule	experimental-endpoint	test-value
Cc1cc(C)c2nc(N3C(=O)C(O)=C(C(=O)c4ccc5c(c4)OCCO5)C3c3cccnc3)sc2c1 (centres unmarked)	CC50	27.4 µM
CCOc1cc(C2C(C(=O)c3cc4ccccc4o3)=C(O)C(=O)N2c2nc(C)c(C(C)=O)s2)ccc1O (centres unmarked)	CC50	59.8 µM
Cc1nnc(N2C(=O)C(O)=C(C(=O)c3ccc(OC(C)C)cc3)C2c2ccco2)s1 (centres unmarked)	CC50	> 110 µM
CC(=O)C1=C(O)C(=O)N(c2nccs2)C1c1ccccc1 (centres unmarked)	CC50	29.7 µM
O=C(C1=C(O)C(=O)N(c2nncs2)C1c1ccc(OCc2ccccc2)cc1)c1cc2ccccc2o1 (centres unmarked)	CC50	> 90 µM

Q) So what's the measured CC50 for this one? Cc1nc(C)c(C(=O)C2=C(O)C(=O)N(c3nc4ccc(Cl)cc4s3)C2c2cccs2)s1 (centres unmarked)
A) > 111 µM

Q) Try the molecule CCCCOc1ccc(C2C(C(=O)c3cc4ccccc4o3)=C(O)C(=O)N2c2nc(C)c(C(C)=O)s2)cc1 (centres unmarked)
A) > 91 µM

Q) Quick one: Cc1coc(N2C(=O)C(O)=C(C(=O)c3cc4ccccc4o3)C2c2ccc(OCc3ccccc3)cc2)n1 (centres unmarked)
A) > 94 µM

* * *

experimental-endpoint: melting point

Worked examples follow.
molecule	melting point
O=C(C1=C(O)C(=O)N(c2nc3ccc(Cl)cc3s2)C1c1ccccc1F)c1nccs1 (stereo not shown) [Compound 435]	309 to 310 °C
CC(=O)c1sc(N2C(=O)C(O)=C(C(=O)c3cc4ccccc4o3)C2c2ccc(-c3ccccc3)cc2)nc1C (stereo not shown) [Compound 55]	226 to 228 °C
O=C(COc1ccccc1Cl)C1=C(O)C(=O)N(c2nc3ccc(Cl)cc3s2)C1c1ccc(F)cc1 (stereo not shown) [Compound 458]	196 to 197 °C

Q) For the molecule Cc1ccc(C(=O)C2=C(O)C(=O)N(CCc3c[nH]c4ccccc34)C2c2ccccc2F)o1 (stereo not shown) [Compound 593] , what melting point is on record?
A) 197 to 198 °C

* * *

# reported melting point; entries follow

compound	test-value
O=C(COc1ccccc1Cl)C1=C(O)C(=O)N(c2nc3ccc(F)cc3s2)C1c1ccc(F)cc1 (centres unmarked)	234 to 235 °C
CCc1ccc2nc(N3C(=O)C(O)=C(C(=O)c4ccc(C)o4)C3c3ccc(Cl)cc3)sc2c1 (centres unmarked)	236 to 238 °C
Cc1ccc(C(=O)C2=C(O)C(=O)N(c3nc4ccc(F)cc4s3)C2c2ccc(OCCCN(C)C)cc2)o1 (centres unmarked)	209 to 211 °C
CCN(CC)c1ccc(C2C(C(=O)c3ccc(C)o3)=C(O)C(=O)N2c2nc3ccc(F)cc3s2)cc1 (centres unmarked)	209 to 212 °C
O=C(C1=C(O)C(=O)N(c2nc3c(Cl)cccc3s2)C1c1ccccc1F)C1CC1 (centres unmarked)	253 to 254 °C

Q) Tell me the measured melting point of CCOC(=O)CCC(=O)C1=C(O)C(=O)N(c2nc3ccc(Cl)cc3s2)C1c1ccccc1F (centres unmarked) , please.
A) 206 to 207 °C

Q) Input CCOC(=O)C1=C(O)C(=O)N(c2nc3ccc(Cl)cc3s2)C1c1ccc(F)cc1 (centres unmarked)
A) 236 to 237 °C

Q) Try this compound next: COCC(=O)C1=C(O)C(=O)N(c2nc3ccc(F)cc3s2)C1c1ccc(F)cc1 (centres unmarked)
A) 249 to 250 °C

* * *

experimental-endpoint: melting point

A selection of reference data follows.
compound	test-value
CCOC(=O)CCC(=O)C1=C(O)C(=O)N(c2nc3ccc(F)cc3s2)C1c1ccc(F)cc1 (stereo not shown)	201 to 202 °C
Cc1ccc(C(=O)C2=C(O)C(=O)N(c3nc4ccc(Cl)cc4s3)C2c2ccccc2C)o1 (stereo not shown)	254 to 256 °C
Cc1ccc(C(=O)C2=C(O)C(=O)N(c3ncnc4[nH]ncc34)C2c2ccccc2F)o1 (stereo not shown)	256 to 258 °C

Q) Which measured melting point value corresponds to Cc1ccc(C(=O)C2=C(O)C(=O)N(c3nc4ccc(F)cc4s3)C2c2ccc(OCc3ccccc3)cc2)o1 (stereo not shown) ?
A) 191 to 193 °C

Q) Next record, please: COC(=O)c1cccc(C2C(C(=O)c3ccc(C)o3)=C(O)C(=O)N2c2nc3cccnc3s2)c1 (stereo not shown)
A) 220 to 221 °C

Q) And the next one, Cc1ccc(C(=O)C2=C(O)C(=O)N(c3nc4ccc(F)cc4s3)C2c2cccc(OCc3ccccc3)c2)o1 (stereo not shown) ?
A) 187 to 188 °C

Q) Another compound to check: Cc1ccc(C(=O)C2=C(O)C(=O)N(c3nc4ccccc4s3)C2c2ccccc2F)o1 (stereo not shown)
A) 253 to 254 °C

* * *

melting point: recorded values

Q) What value of melting point has been recorded for this entry: COc1ccccc1CC(=O)C1=C(O)C(=O)N(c2nc3ccc(F)cc3s2)C1c1ccc(Cl)cc1 (stereo not drawn)
A) 249 to 250 °C

Q) Again, but for Cc1ccc(C(=O)C2=C(O)C(=O)N(Cc3cccs3)C2c2ccccc2F)o1 (stereo not drawn)
A) 193 to 194 °C

Q) Follow-up entry: O=C(C1=C(O)C(=O)N(c2nc3c(Cl)cccc3s2)C1c1ccccc1F)C1CCC1 (stereo not drawn)
A) 220 to 221 °C

Q) Please give the result for Cc1ccc(C(=O)C2=C(O)C(=O)N(c3nc4c(Cl)cccc4s3)C2c2ccc(OCc3ccccc3)cc2)o1 (stereo not drawn) too.
A) 240 to 241 °C

Q) Try the compound COc1ccccc1CC(=O)C1=C(O)C(=O)N(c2nc3c(Cl)cccc3s2)C1c1ccccc1F (stereo not drawn)
A) 224 to 226 °C

Q) Next record, please: CC(=O)N1CCCC1C(=O)C1=C(O)C(=O)N(c2nc3ccc(F)cc3s2)C1c1ccc(Cl)cc1 (stereo not drawn)
A) 293 to 297 °C

Q) How about this compound: Cc1ccc(C(=O)C2=C(O)C(=O)N(c3nc4c(Cl)cccc4s3)C2c2ccc(-c3ccccc3)cc2)o1 (stereo not drawn)
A) 222 to 223 °C
